B1: CPEB3 Ribozyme (parent)
chain: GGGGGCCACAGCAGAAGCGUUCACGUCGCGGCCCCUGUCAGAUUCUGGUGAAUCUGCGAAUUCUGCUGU

# Variants of: B1
# protocol-notes: self-cleavage, relative activity (ratio to wild type); higher = more cleavage; co-transcriptional
Criterion: self-cleavage meeting or surpassing 0.4. Met: 1.0. Not met: 0.0.

Query: Would you say C6A G28A shows self-cleavage at minimum 0.4?
Reply: 0.0

Query: Would you say G37C U62A shows self-cleavage at minimum 0.4?
Reply: 0.0

Query: Would you say G25U G28C shows self-cleavage at minimum 0.4?
Reply: 0.0

Query: Would you say A10U U55A shows self-cleavage at minimum 0.4?
Reply: 1.0

Query: Would you say C6A G25U shows self-cleavage at minimum 0.4?
Reply: 0.0

Query: Would you say G11C U38A shows self-cleavage at minimum 0.4?
Reply: 1.0

Query: Would you say C18U C32A shows self-cleavage at minimum 0.4?
Reply: 0.0

Query: Would you say C29U C54G shows self-cleavage at minimum 0.4?
Reply: 0.0

Query: Would you say U43A G48U shows self-cleavage at minimum 0.4?
Reply: 1.0

Query: Would you say C39A C45U shows self-cleavage at minimum 0.4?
Reply: 1.0

Query: Would you say G48U G50U shows self-cleavage at minimum 0.4?
Reply: 1.0

Query: Would you say G2C A52C shows self-cleavage at minimum 0.4?
Reply: 0.0

Query: Would you say G25A U44A shows self-cleavage at minimum 0.4?
Reply: 0.0

Query: Would you say C24G C29A shows self-cleavage at minimum 0.4?
Reply: 0.0

Query: Would you say G4C A40C shows self-cleavage at minimum 0.4?
Reply: 0.0

Query: Would you say A42G G48U shows self-cleavage at minimum 0.4?
Reply: 1.0

Query: Would you say C7A G50A shows self-cleavage at minimum 0.4?
Reply: 1.0

Query: Would you say A15C G41C shows self-cleavage at minimum 0.4?
Reply: 0.0

Query: Would you say A10U G30A shows self-cleavage at minimum 0.4?
Reply: 1.0

Query: Would you say A15C A42C shows self-cleavage at minimum 0.4?
Reply: 1.0

Query: Would you say G30A U44A shows self-cleavage at minimum 0.4?
Reply: 1.0

Query: Would you say C32G G50U shows self-cleavage at minimum 0.4?
Reply: 1.0

Query: Would you say G41A U49G shows self-cleavage at minimum 0.4?
Reply: 1.0

Query: Would you say A52C U62A shows self-cleavage at minimum 0.4?
Reply: 1.0

Query: Would you say G37C G58U shows self-cleavage at minimum 0.4?
Reply: 0.0

Query: Would you say U20G G37C shows self-cleavage at minimum 0.4?
Reply: 0.0

Query: Would you say G30U G58A shows self-cleavage at minimum 0.4?
Reply: 0.0

Query: Would you say C34U C35U shows self-cleavage at minimum 0.4?
Reply: 1.0

Query: Would you say G19C U67G shows self-cleavage at minimum 0.4?
Reply: 0.0

Query: Would you say G14A G48U shows self-cleavage at minimum 0.4?
Reply: 1.0

Query: Would you say G17U U67C shows self-cleavage at minimum 0.4?
Reply: 1.0
